- target_or_test_system: GST-Rok (full length) (Bacillus subtilis subsp. subtilis str. …, UniProt O34857 1-191)
- Sequence: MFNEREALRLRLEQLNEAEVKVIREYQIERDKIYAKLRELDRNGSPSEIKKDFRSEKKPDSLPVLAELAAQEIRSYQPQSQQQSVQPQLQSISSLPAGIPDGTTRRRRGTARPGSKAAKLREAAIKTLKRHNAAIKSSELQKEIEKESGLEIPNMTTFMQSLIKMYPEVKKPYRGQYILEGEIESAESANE
- test_summary: protein binding microarray; Rok is a gene silencer of Bacillus subtilis; high values mean tight binding
- cond: protein: recombinant; tags: GST (pTH5325, pDEST15-Magic modified); dsDNA, one strand shown
Over roughly 33,000 sequences, “e-score” has its median near -0.037; the highest 2% begin near 0.34. The entries come from a sample that favours the highest values as a whole.
Hi there, I'd appreciate the recorded binding signal for every entry that follows.
// note: answer is a bare numeric in E-score

// field: binding signal; key: AGCTACCG ; value = 0.309

// field: binding signal; key: CCTTTCTA ; value = 0.158

// field: binding signal; key: GTGTATAA ; value = 0.246

// field: binding signal; key: CATTCTAG ; value = 0.259

// field: binding signal; key: AACCACCT ; value = -0.126

// field: binding signal; key: CTCTCACA ; value = -0.156

// field: binding signal; key: ACATAGTC ; value = 0.114

// field: binding signal; key: AATTACTG ; value = 0.191

// field: binding signal; key: AGCGGGGA ; value = -0.076

// field: binding signal; key: TACTTATA ; value = 0.321

// field: binding signal; key: CGTTACTC ; value = -0.0623

// field: binding signal; key: CACGCTTA ; value = -0.0251

// field: binding signal; key: ATTTTATG ; value = 0.251

// field: binding signal; key: AATTTATA ; value = 0.435

// field: binding signal; key: ATTTACTC ; value = 0.0747

// field: binding signal; key: ACTTTTAC ; value = 0.224

// field: binding signal; key: AGAAGATG ; value = 0.193

// field: binding signal; key: CTAATCGA ; value = 0.122

// field: binding signal; key: CGCTATCA ; value = 0.0965

// field: binding signal; key: ATAACCAA ; value = 0.276

// field: binding signal; key: CTGTATAC ; value = 0.216

// field: binding signal; key: ATACGGTG ; value = 0.0458

// field: binding signal; key: ATACGATC ; value = 0.0843

// field: binding signal; key: ATGTATAA ; value = 0.385

// field: binding signal; key: CTAGATAA ; value = 0.302

// field: binding signal; key: CAGACGAA ; value = -0.0357

// field: binding signal; key: AATTACCT ; value = 0.357

// field: binding signal; key: ATCTACCG ; value = 0.409

// field: binding signal; key: AGCGAGCA ; value = -0.18

// field: binding signal; key: GATTCACA ; value = 0.0605

// field: binding signal; key: ACTATTGG ; value = 0.208

// field: binding signal; key: AATTACCG ; value = 0.32

// field: binding signal; key: CAACTATA ; value = 0.307

// field: binding signal; key: TGCAGTAA ; value = 0.194

// field: binding signal; key: GATTTCGA ; value = 0.183

// field: binding signal; key: CGTAAATA ; value = 0.343

// field: binding signal; key: GTAGATAA ; value = 0.407

// field: binding signal; key: CTGTACCA ; value = -0.0416

// field: binding signal; key: ACTATCAA ; value = 0.337

// field: binding signal; key: CTACGGTA ; value = 0.175

// field: binding signal; key: CATTCTAA ; value = 0.0993

// field: binding signal; key: ATGGTATG ; value = 0.0823

// field: binding signal; key: ACACTATA ; value = 0.245

// field: binding signal; key: ATTTTCTG ; value = -0.139

// field: binding signal; key: GAACTATC ; value = 0.292

// field: binding signal; key: AGGAAGTA ; value = 0.0966

// field: binding signal; key: ATTTTATA ; value = 0.41

// field: binding signal; key: GTCAGTAA ; value = 0.00175

// field: binding signal; key: CATTTCGA ; value = -0.0105

// field: binding signal; key: GGTTACTA ; value = 0.163

// field: binding signal; key: CAGTCCAA ; value = -0.0763

// field: binding signal; key: AATTCTAC ; value = 0.435

// field: binding signal; key: GTCTACCA ; value = 0.0944

// field: binding signal; key: ACTTTCTC ; value = 0.0817

// field: binding signal; key: ATGTTGTA ; value = 0.223

// field: binding signal; key: GTTGGCGA ; value = -0.0273

// field: binding signal; key: ATGTACCA ; value = 0.342

// field: binding signal; key: AAACTATA ; value = 0.396

// field: binding signal; key: AGTTCTAC ; value = 0.383

// field: binding signal; key: GCAGATAC ; value = 0.0143

// field: binding signal; key: TTAGATAA ; value = 0.251

// field: binding signal; key: CGTTACTA ; value = 0.34

// field: binding signal; key: GTTTTATA ; value = 0.141

// field: binding signal; key: ATTTACTA ; value = 0.459

// field: binding signal; key: TATGTAGA ; value = 0.292

// field: binding signal; key: CAGGAGAA ; value = -0.111

// field: binding signal; key: ACTTTCTA ; value = 0.386

// field: binding signal; key: ACTCTCCA ; value = -0.0297

// field: binding signal; key: CGTCTAAA ; value = -0.027

// field: binding signal; key: ATACGATA ; value = 0.366

// field: binding signal; key: CGTGCCTA ; value = -0.0621

// field: binding signal; key: GGTAAATA ; value = 0.299

// field: binding signal; key: AATTTCGA ; value = 0.352

// field: binding signal; key: GCCGTGAC ; value = -0.176

// field: binding signal; key: CCTATCAC ; value = 0.0828

// field: binding signal; key: AAACTATC ; value = 0.412

// field: binding signal; key: GACTTATA ; value = 0.257

// field: binding signal; key: ATACGGTA ; value = 0.348

// field: binding signal; key: CTAGATAC ; value = 0.22

// field: binding signal; key: CACTTATA ; value = 0.329

// field: binding signal; key: GCTATCAC ; value = 0.244

// field: binding signal; key: ATTCCTAC ; value = 0.201

// field: binding signal; key: AGATGAAC ; value = 0.165

// field: binding signal; key: GATGTAGA ; value = 0.209

// field: binding signal; key: ATTTTCTC ; value = 0.264

// field: binding signal; key: AGATTCAA ; value = 0.0974

// field: binding signal; key: AGTTCTAA ; value = 0.15

// field: binding signal; key: AAACTCTT ; value = 0.188

// field: binding signal; key: CTTCATAC ; value = 0.0169

// field: binding signal; key: AATTCTAA ; value = 0.252

// field: binding signal; key: CATTTCTA ; value = 0.288
